assay: soluble on expression in E. coli; label from the status in PepcDB or PDB records
Property Measured: soluble on expression in E. coli

Use the examples below as a reference point.
{"Chain Sequence": "MQEYTNHSDTTFALRNISFRVPGRTLLHPLSLTFPAGKVTGLIGHNGSGKSTLLKMLGRHQPPSEGEILLDAQPLESWSSKAFARKVAYLPQQLPPAEGMTVRELVAIGRYPWHGALGRFGAADREKVEEAISLVGLKPLAHRLVDSLSGGERQRAWIAMLVAQDSRCLLLDEPTSALDIAHQVDVLSLVHRLSQERGLTVIAVLHDINMAARYCDYLVALRGGEMIAQGTPAEIMRGETLEMIYGIPMGILPHPAGAAPVSFVY", "soluble on expression in E. coli": "soluble"}
{"Chain Sequence": "MEEVKDDKTYKGFVDRLTLGITRVLENLPGVLDVRFVEKAPAEKRCLLSWEQKNNCALPEDLRDFYLTTDGFMLAWNSKLENEVVPVGCMMINNVAQLRPLIQSNVYCLPNAPTLADLDFDDDIDGSDGPEKPHFDLRSRIFELDSCNGNGKVCLVYKSCSPGVMAQQCEVWFLDRSLFWHYLTPSFTAYYRLMITHLGLPEWQYNFTPYGPSPQAKQWAALYQPLTFHSDPHLDTSSEPFLNKLDPTKAFRGKAKPPTPKKKQPAQVPASGTGTAKGQGLSGRHSVAKR", "soluble on expression in E. coli": "soluble"}
{"Chain Sequence": "MAHHHHHHMVLLSVKGTTFPDEFVYECTAATAIYPDLARNLCHIQNSRHLVKLILLSARELLDEARCKKRVEVVDEGPGDGGANSYSALLTEYGAIIESTSARLKDRVVPVSLEEFDQYADRLRELTERLYPEECCVPEGGRSAAVDRLYQLHDDPNLDEDRRLAVYHCRAILDPQWKSHEQQKEDKAGLWFCGKLMEDTIARYSGKNEKSRLTVKVHPKDSVPPSTEPRISYDDQRALYERMRTRREEYKGLEESELRDRVVAQARGKVALTAPAAASPAMSMDLSRLRPICPKREEHEVN", "soluble on expression in E. coli": "not soluble"}
{"Chain Sequence": "MSLTIDHSVTNTEQLEQQNPAIKTKLKLKKLKDQVIVITGASSGIGLVTARMAAEKGAKVVAAARNEEALKELTDELKEKGHDAIWVKADVGKEEDVNRIAETAISTFGRFDTWVNNAAVSTFGHAMDVTVEDMKRMFDTNFWGPVYGTRAAVKHYTGRGVPGALINVGSLFGDRGTVIQSTYASAKFALHGWTESIRMELEKEQAPVSVTLIHPGRIDTPYNEHAHSYLDKQPAHYRSMIYPPEAVAEAILFAAEHPKRDMYIGSQAKAIAMLGALFPRLTDRLMEKIMYHSQHAERPSNPREGHHHHHH", "soluble on expression in E. coli": "soluble"}

Below: the item to evaluate.
Data request: Given the entry MGSDKIHHHHHHMKIAFDAKRITHNATGLGNYSRFVVNSLSASFPEHTYQLYTPGKGKEALRKRIEERPSVSFHYPEGRFDKLFPSLWRTSGLTATLRKEHVDLFHGLSNEIPMNLKQNGIPAVVTIHDLIFLRYPQLYKPIDRSIYTYKFKQACLRSDKIIAISRQTMRDIRDFFHIPESKIEVVYQGCDPIFGQAVQEDVKSSVREKYQINGPYILYVGSIEERKNLLLLVKALKKLKEDISVIAIGKHTPYTDTVETYIRENNLSGRVHILTHIPFNELAAFYQMATLFVYPSFFEGFGIPILEAQLAGIPVIAATGSCLEEAGGPSALYTDPRNEQELRGLIESVLNEPKLAESMRSGGRENIRRFMPDVLAAHFMRVYENISRS , report its measured soluble on expression in E. coli.
Data returned: not soluble
